Would you kindly list log10 Ki for each of these compounds?
- Measured Target: Voltage-gated L-type calcium channel (Rattus norvegicus, UniProt P22002+Q02485+P27732)
- Assay Method Text: Displacement of [3H]nitrendipine from calcium channel receptor
- Assay type: protein assay
Note the log scale: values are log10 of Ki expressed in nM.

Name the reported log10 Ki value associated with the compound CN(C)Cc1ccc2n1-c1ccccc1SC2c1ccccc1 (stereo unspecified)
2.07

Name the reported log10 Ki value associated with the compound CCC(C)NCc1ccc2n1-c1ccccc1SC2c1ccc(OC)cc1OC (stereo unspecified)
0.74

Name the reported log10 Ki value associated with the compound COc1ccc(C2Sc3ccccc3-n3c(CN(C)CCc4ccc(OC)c(OC)c4)ccc32)cc1.Cl (stereo unspecified)
1.28

Name the reported log10 Ki value associated with the compound COc1ccc(C2Sc3ccccc3-n3c(CNCCc4ccc(OC)c(OC)c4)ccc32)cc1 (stereo unspecified)
2.30

Name the reported log10 Ki value associated with the compound COc1ccc(C2Sc3ccccc3-n3c(CNc4ccc(F)cc4)ccc32)cc1 (stereo unspecified)
3.34

Name the reported log10 Ki value associated with the compound COc1ccc(C2Sc3ccccc3-n3c(CN(C)C)ccc32)c(OC)c1 (stereo unspecified)
1.75
